Where do the numbers come from? From PubChem BioAssay (NCI).

Test system: HCC-2998 colon
Assay: NCI tumour cell line growth inhibition, 48 h; in the data active = GI50 below about 0.43 µM; inactive = the rest
Classes used: active, inactive

| Molecule | Group |
| --- | --- |
| CN(C)c1ccc(Nc2c3ccccc3nc3cc(NC(=O)CCN4CCCC4)ccc23)cc1 | inactive |
| CC(C)=CC(=O)N[C@@H]1CC2CCC3C(CC[C@@]4(C)C3CC[C@@H]4C(C)N(C)C)[C@@]2(C)C[C@@H]1O (some centres undefined) | inactive |
| O=C(Nc1ccc(Oc2ccc(NC(=O)Nc3ccc([N+](=O)[O-])cc3)cc2)cc1)Nc1ccc([N+](=O)[O-])cc1 | inactive |
| O=c1c2c(=NCCN3CCCC3)cc3c(=O)n(CCCN4CCOCC4)c(=O)c4ccc(c(O)n1CCCN1CCOCC1)c2c4-3 | active |
| COc1cc(/C(=C2/O[C@@H]([C@H]3COC(C)(C)O3)[C@H]3OC(C)(C)O[C@@H]23)c2ccc3c(c2)OCO3)cc(OC)c1OC | inactive |
| COc1ccc2c(c1)[nH]c(=O)c1c3cc(OC)c(OC)cc3cn21 | active |
| COc1ccc(-n2cc(-c3cc(OC)c(OC)c(OC)c3)[nH]c2=S)cc1Cl | inactive |
| COc1cc(C(=O)O/N=C(\N)Cc2cccc3ccccc23)cc(OC)c1OC | inactive |
| Fc1cccc(Cl)c1Cn1c(-c2c(F)cccc2Cl)nc2ccccc21 | inactive |
